target_or_test_system: Amine oxidase [flavin-containing] A (Homo sapiens, UniProt P21397)
Sequence (P21397 whole entry): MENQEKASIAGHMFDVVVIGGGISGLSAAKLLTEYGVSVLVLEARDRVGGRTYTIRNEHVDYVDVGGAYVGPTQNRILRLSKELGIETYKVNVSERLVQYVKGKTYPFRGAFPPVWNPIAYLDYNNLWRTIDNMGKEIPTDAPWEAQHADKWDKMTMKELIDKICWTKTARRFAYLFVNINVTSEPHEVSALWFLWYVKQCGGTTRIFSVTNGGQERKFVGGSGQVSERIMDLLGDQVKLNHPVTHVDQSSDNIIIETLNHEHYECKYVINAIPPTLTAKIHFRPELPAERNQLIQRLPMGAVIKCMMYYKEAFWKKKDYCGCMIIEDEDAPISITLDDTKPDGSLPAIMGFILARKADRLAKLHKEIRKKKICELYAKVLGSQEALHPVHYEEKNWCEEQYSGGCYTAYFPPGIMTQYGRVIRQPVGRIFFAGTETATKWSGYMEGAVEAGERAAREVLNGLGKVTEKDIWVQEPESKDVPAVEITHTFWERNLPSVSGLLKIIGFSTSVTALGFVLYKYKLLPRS
method: Inhibition of human MAOA
quantity: Ki (µM)
Just the number in µM, nothing appended.

Query: Consider the compound shown here: NCCCCc1ccccc1 [4-PHENYL-BUTYLAMINE] What is its recorded Ki?
Response: 31

====

target_or_test_system: Amine oxidase [flavin-containing] A (Homo sapiens, UniProt P21397)
method: Inhibition of human recombinant MAOA expressed in Pichia pastoris by kinetic assay
quantity: pKi
The read-out pKi is expressed as -log10 of concentration in moles per litre.

Query: Consider the compound shown here: NC/C(=C/F)CCc1ccc(F)cc1 What is its recorded pKi?
Response: 5.96

====

target_or_test_system: Amine oxidase [flavin-containing] B (Homo sapiens, UniProt P27338)
Sequence (P27338 whole entry): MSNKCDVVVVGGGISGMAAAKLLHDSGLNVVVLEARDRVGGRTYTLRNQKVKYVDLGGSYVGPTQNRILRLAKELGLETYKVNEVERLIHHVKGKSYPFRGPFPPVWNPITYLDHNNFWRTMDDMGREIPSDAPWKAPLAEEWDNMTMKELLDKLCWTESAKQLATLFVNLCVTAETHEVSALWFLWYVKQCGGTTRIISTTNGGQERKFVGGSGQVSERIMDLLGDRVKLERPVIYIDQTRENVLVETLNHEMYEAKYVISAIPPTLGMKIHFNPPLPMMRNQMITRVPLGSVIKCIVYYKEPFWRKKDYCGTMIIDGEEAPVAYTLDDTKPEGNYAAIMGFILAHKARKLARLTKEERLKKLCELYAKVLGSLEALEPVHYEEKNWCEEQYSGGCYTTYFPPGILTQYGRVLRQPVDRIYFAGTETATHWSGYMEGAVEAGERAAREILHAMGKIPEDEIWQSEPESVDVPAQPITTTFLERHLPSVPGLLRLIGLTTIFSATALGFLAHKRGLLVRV
method: Inhibition of human recombinant MAOB expressed in Pichia pastoris by kinetic assay
quantity: Ki (nM)
Just the number in nM, nothing appended.

Query: Consider the molecule shown here: NC/C(=C/F)CCc1ccc(F)cc1 What is its recorded Ki?
Response: 28
